Recorded EC50 for the following compounds
tested on: Pf Dd2 strain with an I22L mutation in the Qi site cyt b; assay: Cyt b resistant asexual stage assay, Dd2 cyt b(I22L); assay type: cell-based; settings: Plasmodium falciparum, DD2, 72 h, read-out: Pf cyt b mutant strains EC50 (SD) Dd2 cyt b(I22L)
Enter the number, and then the unit.

CCCN(Cc1ccc(C(=O)NC2CC2)cc1)Cc1ccc(C(F)(F)F)cc1; 0.002 µM

Consider the record given below.
Entry O=C(NC1CC1)c1ccc(CN(Cc2ccc(Cl)cc2Cl)C2CC2)cc1 ; EC50 = 0.049 µM

====

system: Pf SB1-A6 strain; experiment: Asexual stage assay, SB1-A6 strain; assay type: cell-based; conditions: Plasmodium falciparum, 72 h, read-out: SB1-A6 EC50 (SD)
We begin with a simple list: items and their reported EC50.

O=C(NC1CC1)c1ccc(CN(Cc2ccc(Cl)cc2Cl)C2CC2)cc1; > 10 µM

Consider now this further molecule.
EC50 recorded for this molecule, CCCN(Cc1ccc(C(=O)NC2CC2)cc1)Cc1ccc(C(F)(F)F)cc1 , is > 10 µM

====

system: W466-resistant populations; experiment: 72 h growth assay against W466-resistant populations; assay type: cell-based, Plasmodium falciparum; settings: Plasmodium falciparum, read-out: W466-resistant populations EC50 (SD) #2
Measured EC50 values are reported for all entries that follow.
Please reply with the bare figure in nM and do not write the unit itself.

Would you please look over these solved cases?
COc1cc2[nH]c(C)c(-c3ccc(Oc4ccc(OC(F)(F)F)cc4)cc3)c(=O)c2cc1Cl; 18
O=C1C(O)=C([C@H]2CC[C@H](c3ccc(Cl)cc3)CC2)C(=O)c2ccccc21; 1

molecule O=C(NC1CC1)c1ccc(CN(Cc2ccc(Cl)cc2Cl)C2CC2)cc1 , EC50 observed: 243

The molecule identified as Cc1cc(Nc2ccc(S(F)(F)(F)(F)F)cc2)n2nc(C(C)(F)F)nc2n1 registered its EC50 at 13

====

The following compounds are listed with their measured fold decrease in Pf 3D7 activity relative to 17 values.
tested on: P. falciparum 3D7 parasites; assay: P. falciparum 3D7 asexual stage LDH assay (72 h); assay type: cell-based, Plasmodium falciparum; conditions: ratio of EC50 to compound 17

In the examples that follow, each entry is paired with its recorded fold decrease in Pf 3D7 activity relative to 17.
CC(c1ccc(C(=O)NC2CC2)cc1)N(Cc1ccccc1)C1CC1 (centres unmarked) [Compound 98]; 2 fold
CCN(Cc1ccccc1)Cc1ccc(C(=O)NC2CC2)cc1 [Compound 20]; 4 fold

Please fill in: fold decrease in Pf 3D7 activity relative to 17 reported for CN(Cc1ccccc1)Cc1ccc(C(=O)NC2CC2)cc1 [Compound 19] = 20 fold

Sample O=C(NC1CC1)c1cccc(CN(Cc2ccccc2)C2CC2)c1 [Compound 28] ; fold decrease in Pf 3D7 activity relative to 17 observed: 40 fold

====

tested on: W499-resistant populations; assay: microbe, parasite or virus in culture; assay type: cell-based, Plasmodium falciparum; details: Plasmodium falciparum, read-out: W499-resistant population #3 EC50
Result type: pEC50
Scale explanation: pEC50 corresponds to minus log10 of a concentration expressed in moles per litre.

Field pEC50 (entry O=C(NC1CC1)c1ccc(CN(Cc2ccc(Cl)cc2Cl)C2CC2)cc1 [W499 (2)] ) reads 6.75

====

Reported hepatocyte CLint at 1.5 h, 1 µM values for a set of molecules
experiment: Rat hepatocyte stability; format: in vitro ADME; conditions: pooled rat hepatocytes
Supply the numeric figure in µL/min/1e6 cells, leaving out any unit text.

CCCN(Cc1ccc(C(=O)NC2CC2)cc1)Cc1cc(C(F)(F)F)cc(C(F)(F)F)c1 [Compound 109]; 60

hepatocyte CLint at 1.5 h, 1 µM recorded for this molecule, CCCN(Cc1ccc(C(=O)NC2CC2)cc1)Cc1ccc(C(C)(C)C)cc1 [Compound 107] , is 92
